test system: VanA vancomycin-resistant E. faecalis (11); test: MIC broth microdilution, VanA E. faecalis; conditions: E. faecalis, VanA (11)
Catalogue of molecules with associated MIC 90%
Answer format: numeric, µg/mL implied, no suffix.

# example entries with known answers
molecule	unitAnnotation	assayValue
CNC(CC(C)C)C(=O)NC1C(=O)NC(CC(N)=O)C(=O)NC2C(=O)NC3C(=O)NC(C(=O)NC(C(=O)O)c4cc(O)c(CNCCOCCOCC[N+](C)(C)C)c(O)c4-c4cc3ccc4O)C(O)c3ccc(c(Cl)c3)Oc3cc2cc(c3OC2OC(CO)C(O)C(O)C2OC2CC(C)(NCc3ccc(OCc4ccc(Cl)c(Cl)c4)cc3)C(O)C(C)O2)Oc2ccc(cc2Cl)C1O (centres unmarked)	µg/mL	4
CNC(CC(C)C)C(=O)NC1C(=O)NC(CC(N)=O)C(=O)NC2C(=O)NC3C(=O)NC(C(=O)NC(C(=O)NCCOCCOCCN(C)C)c4cc(O)cc(O)c4-c4cc3ccc4O)C(O)c3ccc(c(Cl)c3)Oc3cc2cc(c3OC2OC(CO)C(O)C(O)C2OC2CC(C)(NCc3ccc(-c4ccc(Cl)cc4)cc3)C(O)C(C)O2)Oc2ccc(cc2Cl)C1O (centres unmarked)	µg/mL	8
CNC(CC(C)C)C(=O)NC1C(=O)NC(CC(N)=O)C(=O)NC2C(=O)NC3C(=O)NC(C(=O)NC(C(=O)O)c4cc(O)c(CNCCOCCOCCN(C)C)c(O)c4-c4cc3ccc4O)C(O)c3ccc(c(Cl)c3)Oc3cc2cc(c3OC2OC(CO)C(O)C(O)C2OC2CC(C)(NCc3ccc(-c4ccc(Cl)cc4)cc3)C(O)C(C)O2)Oc2ccc(cc2Cl)C1O (centres unmarked)	µg/mL	16
CCCCCCCCCCNCCNC1(C)CC(OC2C(Oc3c4cc5cc3Oc3ccc(cc3Cl)C(O)C3NC(=O)C(NC(=O)C5NC(=O)C(CC(N)=O)NC(=O)C(NC(=O)C(CC(C)C)NC)C(O)c5ccc(c(Cl)c5)O4)c4ccc(O)c(c4)-c4c(cc(O)c(CNCCOCCOCC[N+](C)(C)C)c4O)C(C(=O)O)NC3=O)OC(CO)C(O)C2O)OC(C)C1O (centres unmarked)	µg/mL	8

Please look at the following molecule next.
Task: What value of MIC 90% on VanA vancomycin-resistant E. faecalis (11) does CCCCCCCCCCNCCNC1(C)CC(OC2C(Oc3c4cc5cc3Oc3ccc(cc3Cl)C(O)C3NC(=O)C(NC(=O)C5NC(=O)C(CC(N)=O)NC(=O)C(NC(=O)C(CC(C)C)NC)C(O)c5ccc(c(Cl)c5)O4)c4ccc(O)c(c4)-c4c(cc(O)c(CNCCOCCOCCN)c4O)C(C(=O)O)NC3=O)OC(CO)C(O)C2O)OC(C)C1O (centres unmarked) have?
Result: 8

---

tested on: VanA vancomycin-resistant E. faecalis (11); assay: MIC broth microdilution, VanA E. faecalis; conditions: E. faecalis, VanA (11)
The entries below come with measured MIC 90% values attached.

compound	MIC 90%
CNC(CC(C)C)C(=O)NC1C(=O)NC(CC(N)=O)C(=O)NC2C(=O)NC3C(=O)NC(C(=O)NC(C(=O)NCCOCCOCCN)c4cc(O)cc(O)c4-c4cc3ccc4O)C(O)c3ccc(c(Cl)c3)Oc3cc2cc(c3OC2OC(CO)C(O)C(O)C2OC2CC(C)(NCc3ccc(-c4ccc(Cl)cc4)cc3)C(O)C(C)O2)Oc2ccc(cc2Cl)C1O (centres unmarked)	8 µg/mL

Task: Give the reported MIC 90% for CNC(CC(C)C)C(=O)NC1C(=O)NC(CC(N)=O)C(=O)NC2C(=O)NC3C(=O)NC(C(=O)NC(C(=O)NCCOCCOCCN)c4cc(O)cc(O)c4-c4cc3ccc4O)C(O)c3ccc(c(Cl)c3)Oc3cc2cc(c3OC2OC(CO)C(O)C(O)C2OC2CC(C)(NCc3ccc(OCc4ccc(Cl)c(Cl)c4)cc3)C(O)C(C)O2)Oc2ccc(cc2Cl)C1O (centres unmarked) (system: VanA vancomycin-resistant E. faecalis (11)).
Result: 2 µg/mL

---

test system: Staphylococcus aureus (65 strains); assay: MIC broth microdilution, S. aureus all isolates; settings: S. aureus (65), all resistance subsets
Readings of MIC 90% for the listed compounds
Quote the value and follow it with the unit of measurement.

compound	MIC 90%
CNC(CC(C)C)C(=O)NC1C(=O)NC(CC(N)=O)C(=O)NC2C(=O)NC3C(=O)NC(C(=O)NC(C(=O)NCCOCCOCCN(C)C)c4cc(O)cc(O)c4-c4cc3ccc4O)C(O)c3ccc(c(Cl)c3)Oc3cc2cc(c3OC2OC(CO)C(O)C(O)C2OC2CC(C)(NCc3ccc(-c4ccc(Cl)cc4)cc3)C(O)C(C)O2)Oc2ccc(cc2Cl)C1O (stereo not drawn)	0.25 µg/mL
CNC(CC(C)C)C(=O)NC1C(=O)NC(CC(N)=O)C(=O)NC2C(=O)NC3C(=O)NC(C(=O)NC(C(=O)O)c4cc(O)c(CNCCOCCOCCOCCN(C)C)c(O)c4-c4cc3ccc4O)C(O)c3ccc(c(Cl)c3)Oc3cc2cc(c3OC2OC(CO)C(O)C(O)C2OC2CC(C)(NCc3ccc(-c4ccc(Cl)cc4)cc3)C(O)C(C)O2)Oc2ccc(cc2Cl)C1O (stereo not drawn)	0.5 µg/mL

Task: Requested read-out: MIC 90%. Entry: CNC(CC(C)C)C(=O)NC1C(=O)NC(CC(N)=O)C(=O)NC2C(=O)NC3C(=O)NC(C(=O)NC(C(=O)O)c4cc(O)c(CNCCOCCOCCN(C)C)c(O)c4-c4cc3ccc4O)C(O)c3ccc(c(Cl)c3)Oc3cc2cc(c3OC2OC(CO)C(O)C(O)C2OC2CC(C)(NCc3ccc(-c4ccc(Cl)cc4)cc3)C(O)C(C)O2)Oc2ccc(cc2Cl)C1O (stereo not drawn)
Result: 0.5 µg/mL

---

In this section, each of the compounds is paired with its reported Max Kill (maximum decrease from initial infection level).
test system: S. aureus ATCC 25923; assay: Neutropenic murine thigh infection model; details: 1 mg/kg single intraperitoneal dose
Return type: number; implicit unit Log10 CFU/thigh.

compound	unitAnnotation	assayValue
CNC(CC(C)C)C(=O)NC1C(=O)NC(CC(N)=O)C(=O)NC2C(=O)NC3C(=O)NC(C(=O)NC(C(=O)NCCOCCOCCN(C)C)c4cc(O)cc(O)c4-c4cc3ccc4O)C(O)c3ccc(c(Cl)c3)Oc3cc2cc(c3OC2OC(CO)C(O)C(O)C2OC2CC(C)(NCc3ccc(-c4ccc(Cl)cc4)cc3)C(O)C(C)O2)Oc2ccc(cc2Cl)C1O (centres unmarked) [Compound 10]	Log10 CFU/thigh	0.43

Moving on to the next compound.
Task: Query (compound): CNC(CC(C)C)C(=O)NC1C(=O)NC(CC(N)=O)C(=O)NC2C(=O)NC3C(=O)NC(C(=O)NC(C(=O)NCCOCCOCCN)c4cc(O)cc(O)c4-c4cc3ccc4O)C(O)c3ccc(c(Cl)c3)Oc3cc2cc(c3OC2OC(CO)C(O)C(O)C2OC2CC(C)(NCc3ccc(OCc4ccc(Cl)c(Cl)c4)cc3)C(O)C(C)O2)Oc2ccc(cc2Cl)C1O (centres unmarked) [Compound 27] ; field requested: Max Kill (maximum decrease from initial infection level)
Result: 0.45

---

system: Staphylococcus aureus (65 strains); assay: MIC broth microdilution, S. aureus all isolates; settings: S. aureus (65), all resistance subsets
recordedEndpoint: MIC 50%
Hey, just the number and the unit after it is fine.

Past entries and their recorded results:
compound	MIC 50%
CNC(CC(C)C)C(=O)NC1C(=O)NC(CC(N)=O)C(=O)NC2C(=O)NC3C(=O)NC(C(=O)NC(C(=O)O)c4cc(O)c(CNCCOCCOCCN)c(O)c4-c4cc3ccc4O)C(O)c3ccc(c(Cl)c3)Oc3cc2cc(c3OC2OC(CO)C(O)C(O)C2OC2CC(C)(NCc3ccc(-c4ccc(Cl)cc4)cc3)C(O)C(C)O2)Oc2ccc(cc2Cl)C1O (stereo not drawn)	0.12 µg/mL
CCCCCCCCCCNCCNC1(C)CC(OC2C(Oc3c4cc5cc3Oc3ccc(cc3Cl)C(O)C3NC(=O)C(NC(=O)C5NC(=O)C(CC(N)=O)NC(=O)C(NC(=O)C(CC(C)C)NC)C(O)c5ccc(c(Cl)c5)O4)c4ccc(O)c(c4)-c4c(O)cc(O)cc4C(C(=O)NCCOCCOCCN)NC3=O)OC(CO)C(O)C2O)OC(C)C1O (stereo not drawn)	0.06 µg/mL

Task: # lookup: MIC 50% of CNC(CC(C)C)C(=O)NC1C(=O)NC(CC(N)=O)C(=O)NC2C(=O)NC3C(=O)NC(C(=O)NC(C(=O)NCCOCCOCCN(C)C)c4cc(O)cc(O)c4-c4cc3ccc4O)C(O)c3ccc(c(Cl)c3)Oc3cc2cc(c3OC2OC(CO)C(O)C(O)C2OC2CC(C)(NCc3ccc(-c4ccc(Cl)cc4)cc3)C(O)C(C)O2)Oc2ccc(cc2Cl)C1O (stereo not drawn)
Result: 0.06 µg/mL

---

Each entry below carries its reported AUCc-t (AUC difference between control and treated animals).
test system: S. aureus ATCC 25923; experiment: Neutropenic murine thigh infection model; conditions: 1 mg/kg single intraperitoneal dose; 24 h time kill

compound	testedTarget	assayValue
CCCCCCCCCCNCCNC1(C)CC(OC2C(Oc3c4cc5cc3Oc3ccc(cc3Cl)C(O)C3NC(=O)C(NC(=O)C5NC(=O)C(CC(N)=O)NC(=O)C(NC(=O)C(CC(C)C)NC)C(O)c5ccc(c(Cl)c5)O4)c4ccc(O)c(c4)-c4c(cc(O)c(CNCCOCCOCCN)c4O)C(C(=O)O)NC3=O)OC(CO)C(O)C2O)OC(C)C1O (stereo not drawn)	S. aureus ATCC 25923	28.4 (Log10 CFU/thigh)/hr
CNC(CC(C)C)C(=O)NC1C(=O)NC(CC(N)=O)C(=O)NC2C(=O)NC3C(=O)NC(C(=O)NC(C(=O)O)c4cc(O)c(CNCCOCCOCCN(C)C)c(O)c4-c4cc3ccc4O)C(O)c3ccc(c(Cl)c3)Oc3cc2cc(c3OC2OC(CO)C(O)C(O)C2OC2CC(C)(NCc3ccc(-c4ccc(Cl)cc4)cc3)C(O)C(C)O2)Oc2ccc(cc2Cl)C1O (stereo not drawn)	S. aureus ATCC 25923	6.1 (Log10 CFU/thigh)/hr

Field: next compound
Task: Looking for the measured AUCc-t (AUC difference between control and treated animals) of CNC(CC(C)C)C(=O)NC1C(=O)NC(CC(N)=O)C(=O)NC2C(=O)NC3C(=O)NC(C(=O)NC(C(=O)O)c4cc(O)c(CNCCOCCOCC[N+](C)(C)C)c(O)c4-c4cc3ccc4O)C(O)c3ccc(c(Cl)c3)Oc3cc2cc(c3OC2OC(CO)C(O)C(O)C2OC2CC(C)(NCc3ccc(OCc4ccc(Cl)c(Cl)c4)cc3)C(O)C(C)O2)Oc2ccc(cc2Cl)C1O (stereo not drawn) , can you help?
Result: 17.7 (Log10 CFU/thigh)/hr

Values compiled from patent US20140171357A1.
